target: T1, biotinylated mouse recombinant IL-12Rβ2 (produced in-house) (mouse, UniProt P97378 24-637, random biotinylated)
T1 construct: Soluble recombinant protein used for panning, ELISA and BLI; also called mIL-12RB2; mIL12RB2
T1 sequence: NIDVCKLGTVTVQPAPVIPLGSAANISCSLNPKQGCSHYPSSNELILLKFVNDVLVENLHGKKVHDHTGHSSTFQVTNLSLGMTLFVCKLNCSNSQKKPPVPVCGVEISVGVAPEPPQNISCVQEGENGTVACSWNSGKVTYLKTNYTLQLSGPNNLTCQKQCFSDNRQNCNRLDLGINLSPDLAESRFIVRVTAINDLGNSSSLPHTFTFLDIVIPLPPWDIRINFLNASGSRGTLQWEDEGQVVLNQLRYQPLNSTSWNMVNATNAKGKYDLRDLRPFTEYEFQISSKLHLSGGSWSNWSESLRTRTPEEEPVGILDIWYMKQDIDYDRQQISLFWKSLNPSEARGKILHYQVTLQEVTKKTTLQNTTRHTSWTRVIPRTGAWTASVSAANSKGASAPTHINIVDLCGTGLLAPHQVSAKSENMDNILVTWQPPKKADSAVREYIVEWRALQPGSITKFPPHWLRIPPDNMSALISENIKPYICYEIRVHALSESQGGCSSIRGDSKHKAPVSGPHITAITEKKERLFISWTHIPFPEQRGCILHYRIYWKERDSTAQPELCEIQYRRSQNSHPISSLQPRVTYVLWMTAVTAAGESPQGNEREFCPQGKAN
test-protocol: ELISA, periplasmic extract on biotinylated mouse IL-12Rβ2; signal over streptavidin control well
quantity-measured: mIL12RB2/control (ELISA) (ratio)
Only the number, expressed in ratio, is required.

1) anti-IL-12Rβ2 VHH clone 3CAHS142 (clone ID 20401) (VHH, Tested as periplasmic extract; not shown: C-terminal HA tag) VHH: QVQLQESGGGLVQAGESLTLSCIASGVIKDYAMGWFRQAPGKEREFVAAISWSGVSIYYADSVKGRFTISRDNAKNTVYLQMNSLEPEDTAVYYCAGTEGAYTVAGGSTFGYDMDYWGKGTQVTVSS; 1.07
2) anti-IL-12Rβ2 VHH clone 3CRH25 (clone ID 20378) (VHH, Tested as periplasmic extract; not shown: C-terminal HA tag) VHH: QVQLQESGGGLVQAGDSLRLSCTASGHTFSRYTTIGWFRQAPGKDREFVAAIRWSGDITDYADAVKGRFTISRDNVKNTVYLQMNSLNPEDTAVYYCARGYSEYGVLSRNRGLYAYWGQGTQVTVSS; 1.04
3) anti-IL-12Rβ2 VHH clone 2CRH82 (clone ID 20372) (VHH, Tested as periplasmic extract; not shown: C-terminal HA tag) VHH: QVQLQESGGGLVQAGGSLRLSCAASARTESMYAMAWFRQAPGKEREIVAGIIQSGGTTYISDYMKGRFSIDRGNAENTVYLQMDSLKPEDTAVYSCAAKVSSGTPSDIQISQSRWYDHWGQGTQVTVSS; 1.77

Give its mIL12RB2/control (ELISA) value. Item: anti-IL-12Rβ2 VHH clone 3CRHM99 (clone ID 21062) (VHH, Tested as periplasmic extract; not shown: C-terminal HA tag) VHH: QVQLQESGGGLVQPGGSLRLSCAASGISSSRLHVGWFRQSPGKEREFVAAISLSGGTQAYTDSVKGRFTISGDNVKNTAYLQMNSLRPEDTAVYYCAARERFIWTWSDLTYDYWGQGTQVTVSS
5.24
